tested on: PPARg:RXRa IVT, anti-PPARg (NR concentration 270 nM, RXRa partner concentration 90 nM); assay: PBM binding z-score (relative to random genomic background probes); higher = stronger binding; sequences stand for … in GC…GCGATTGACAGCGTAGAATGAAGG
ATTRIBUTE MEASURED: PBM binding z-score
// return just the number, without any unit appended

Input: Given the entry CCTACTGCGCCATCAGGTCATTGATATCAACGTT , report its measured PBM binding z-score.
Output: 1.25

Input: Given the entry CAAACTAGGTCAATAGGTCAAAGTCCGCTTCCCG , report its measured PBM binding z-score.
Output: 8.3

Input: Given the entry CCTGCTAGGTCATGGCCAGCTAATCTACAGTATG , report its measured PBM binding z-score.
Output: 3.91

Input: Given the entry AGAATGAGGTTATACGTAGATCAGGCAAGAAAGT , report its measured PBM binding z-score.
Output: 2.33

Input: Given the entry AGAATGAGGTTAAGAGCAGGGAAACAGAATACAT , report its measured PBM binding z-score.
Output: 2.37

Input: Given the entry AGTTAAAGTTCACTAGGTAACGTAAGATTCAGCT , report its measured PBM binding z-score.
Output: 4.69

Input: Given the entry TCATATAGGTAAAGGTGGAAGTCGAACGATATGA , report its measured PBM binding z-score.
Output: 2.86

Input: Given the entry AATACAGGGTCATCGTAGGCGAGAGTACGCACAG , report its measured PBM binding z-score.
Output: 4.14

Input: Given the entry GGAACGAGGGTAAAGTTGATAGCATCTGTCGACG , report its measured PBM binding z-score.
Output: 2.91

Input: Given the entry ACAGTCAGGTGAGTGAAGGTAACTCAGCTGGACG , report its measured PBM binding z-score.
Output: 0.82

Input: Given the entry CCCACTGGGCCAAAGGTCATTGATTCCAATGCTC , report its measured PBM binding z-score.
Output: 6.2

Input: Given the entry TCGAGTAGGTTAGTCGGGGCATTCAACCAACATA , report its measured PBM binding z-score.
Output: 2.16

Input: Given the entry AATACAGGGGCATCGTAGGCCAGAGTACGCACAG , report its measured PBM binding z-score.
Output: 1.26

Input: Given the entry CGTCCAAGGTCAGCAGGGCAGTGAAAGCGACGTG , report its measured PBM binding z-score.
Output: 3.13

Input: Given the entry ACTATTAGTTGACTTAGGGCAACAGATACGACGC , report its measured PBM binding z-score.
Output: 0.696

Input: Given the entry CATACAGTGTCAGCTAGGCCAGAGTAGGGACGGC , report its measured PBM binding z-score.
Output: 0.608

Input: Given the entry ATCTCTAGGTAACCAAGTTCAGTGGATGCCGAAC , report its measured PBM binding z-score.
Output: 2.83

Input: Given the entry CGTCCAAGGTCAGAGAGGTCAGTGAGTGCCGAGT , report its measured PBM binding z-score.
Output: 3.66

Input: Given the entry AGAATGAGTTTATACGTAGATCAGGGAAGAAAGT , report its measured PBM binding z-score.
Output: 0.0744

Input: Given the entry GCATATAGGTAATACGAGGTGAAAGTCCGATTGT , report its measured PBM binding z-score.
Output: 3.44

Input: Given the entry GGAACGAGGGCAGTCGAGTTGATAGCATGGCGAT , report its measured PBM binding z-score.
Output: 1.29

Input: Given the entry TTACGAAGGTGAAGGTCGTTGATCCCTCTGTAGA , report its measured PBM binding z-score.
Output: 2.62

Input: Given the entry CATCCTAGGTCAGGGCCAGTATAGGAGGAACGTT , report its measured PBM binding z-score.
Output: 3.82

Input: Given the entry TCTAGCAGGCCAGACGGTCACTCAAGAGGTACGG , report its measured PBM binding z-score.
Output: 0.0624

Input: Given the entry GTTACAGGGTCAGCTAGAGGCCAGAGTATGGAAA , report its measured PBM binding z-score.
Output: 2.79

Input: Given the entry GCATATCGGTAATACAAGGTGAAAGTCCGATTGT , report its measured PBM binding z-score.
Output: 0.945

Input: Given the entry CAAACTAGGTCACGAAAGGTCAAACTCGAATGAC , report its measured PBM binding z-score.
Output: 8.97

Input: Given the entry CCTGCTAGGTCAATGGTCTGCTAAAGCAGCTCGC , report its measured PBM binding z-score.
Output: 3.5

Input: Given the entry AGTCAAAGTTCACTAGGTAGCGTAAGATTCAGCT , report its measured PBM binding z-score.
Output: 3.4

Input: Given the entry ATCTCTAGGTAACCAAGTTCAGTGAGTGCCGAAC , report its measured PBM binding z-score.
Output: 2.77

Input: Given the entry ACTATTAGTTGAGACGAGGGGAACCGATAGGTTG , report its measured PBM binding z-score.
Output: 0.325

Input: Given the entry GCAGACAGGTGAAACGCAGGTAATTCAGGGTGGC , report its measured PBM binding z-score.
Output: 0.576

Input: Given the entry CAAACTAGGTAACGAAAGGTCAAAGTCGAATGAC , report its measured PBM binding z-score.
Output: 6.76

Input: Given the entry ACTAGTTGGTCAGCTGAGGTCACCCACAATTCGG , report its measured PBM binding z-score.
Output: 2.73

Input: Given the entry TCTAGCAGGCCAGAGGGTCAGTCAAGAGGTACGG , report its measured PBM binding z-score.
Output: 0.496

Input: Given the entry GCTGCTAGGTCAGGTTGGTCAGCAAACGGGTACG , report its measured PBM binding z-score.
Output: 2.2

Input: Given the entry TCTTGTAGATCAATAGAGGTTCAGAAAGTGCGCT , report its measured PBM binding z-score.
Output: 0.382

Input: Given the entry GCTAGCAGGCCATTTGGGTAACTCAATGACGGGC , report its measured PBM binding z-score.
Output: 0.155

Input: Given the entry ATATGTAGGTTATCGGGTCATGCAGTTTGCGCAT , report its measured PBM binding z-score.
Output: 7.68

Input: Given the entry TTACCAAGGTGAGGTGAGGTCGTTGATCCAACTC , report its measured PBM binding z-score.
Output: 2.9

Input: Given the entry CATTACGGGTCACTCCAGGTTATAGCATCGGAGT , report its measured PBM binding z-score.
Output: 4.96

Input: Given the entry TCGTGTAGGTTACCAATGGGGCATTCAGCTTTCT , report its measured PBM binding z-score.
Output: 2.01

Input: Given the entry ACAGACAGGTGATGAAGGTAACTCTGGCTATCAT , report its measured PBM binding z-score.
Output: 0.477

Input: Given the entry TAGCCTAGGTCAGATCGGGCCTGTATACGCTATA , report its measured PBM binding z-score.
Output: 1.36

Input: Given the entry ATATGTAGGTCACATCCGGGTCATTCAGGCTATG , report its measured PBM binding z-score.
Output: 8.92
